tested_on: SWI/SNF-related matrix-associated actin-dependent regulator of chromatin subfamily A member 2 (Homo sapiens)
pIC50: −log10 of the molar value.
Classify by measured pIC50: Y if it is equal to or exceeds 8, N if it is smaller.

Ask: Is it the case that Cc1ncsc1-c1ccc([C@H](C)NC(=O)[C@@H]2C[C@@H](O)CN2C(=O)[C@@H](c2cc(OCCCN3CCC(c4ccc5c(c4)C(C)(C)c4nc(=O)c6c(Cl)cccc6n4-5)CC3)no2)C(C)C)cc1 has pIC50 reaching or exceeding 8?
Reply: N

Ask: Determine whether measured pIC50 meets or exceeds 8 for O=c1nc2n(c3cccc(Br)c13)-c1ccc(C3CCNCC3)cc1C21CCCCC1
Reply: Y

Ask: Item Cc1ncsc1-c1ccc([C@H](C)NC(=O)[C@@H]2C[C@@H](O)CN2C(=O)[C@@H](c2cc(OCCN3CCC(c4ccc5c(c4)C(C)(C)c4nc(=O)c6c(Cl)cccc6n4-5)CC3)no2)C(C)C)cc1 with pIC50 of 8 or above?
Reply: N

Ask: Kindly determine if pIC50 recorded for O=c1nc2n(c3cccc(Cl)c13)-c1ccc(C3CCNCC3)cc1C21CCNCC1 is above or exactly 8.
Reply: N

---

tested_on: SWI/SNF-related matrix-associated actin-dependent regulator of chromatin subfamily A member 2 (Homo sapiens, UniProt P51531)
Sequence (P51531 whole entry): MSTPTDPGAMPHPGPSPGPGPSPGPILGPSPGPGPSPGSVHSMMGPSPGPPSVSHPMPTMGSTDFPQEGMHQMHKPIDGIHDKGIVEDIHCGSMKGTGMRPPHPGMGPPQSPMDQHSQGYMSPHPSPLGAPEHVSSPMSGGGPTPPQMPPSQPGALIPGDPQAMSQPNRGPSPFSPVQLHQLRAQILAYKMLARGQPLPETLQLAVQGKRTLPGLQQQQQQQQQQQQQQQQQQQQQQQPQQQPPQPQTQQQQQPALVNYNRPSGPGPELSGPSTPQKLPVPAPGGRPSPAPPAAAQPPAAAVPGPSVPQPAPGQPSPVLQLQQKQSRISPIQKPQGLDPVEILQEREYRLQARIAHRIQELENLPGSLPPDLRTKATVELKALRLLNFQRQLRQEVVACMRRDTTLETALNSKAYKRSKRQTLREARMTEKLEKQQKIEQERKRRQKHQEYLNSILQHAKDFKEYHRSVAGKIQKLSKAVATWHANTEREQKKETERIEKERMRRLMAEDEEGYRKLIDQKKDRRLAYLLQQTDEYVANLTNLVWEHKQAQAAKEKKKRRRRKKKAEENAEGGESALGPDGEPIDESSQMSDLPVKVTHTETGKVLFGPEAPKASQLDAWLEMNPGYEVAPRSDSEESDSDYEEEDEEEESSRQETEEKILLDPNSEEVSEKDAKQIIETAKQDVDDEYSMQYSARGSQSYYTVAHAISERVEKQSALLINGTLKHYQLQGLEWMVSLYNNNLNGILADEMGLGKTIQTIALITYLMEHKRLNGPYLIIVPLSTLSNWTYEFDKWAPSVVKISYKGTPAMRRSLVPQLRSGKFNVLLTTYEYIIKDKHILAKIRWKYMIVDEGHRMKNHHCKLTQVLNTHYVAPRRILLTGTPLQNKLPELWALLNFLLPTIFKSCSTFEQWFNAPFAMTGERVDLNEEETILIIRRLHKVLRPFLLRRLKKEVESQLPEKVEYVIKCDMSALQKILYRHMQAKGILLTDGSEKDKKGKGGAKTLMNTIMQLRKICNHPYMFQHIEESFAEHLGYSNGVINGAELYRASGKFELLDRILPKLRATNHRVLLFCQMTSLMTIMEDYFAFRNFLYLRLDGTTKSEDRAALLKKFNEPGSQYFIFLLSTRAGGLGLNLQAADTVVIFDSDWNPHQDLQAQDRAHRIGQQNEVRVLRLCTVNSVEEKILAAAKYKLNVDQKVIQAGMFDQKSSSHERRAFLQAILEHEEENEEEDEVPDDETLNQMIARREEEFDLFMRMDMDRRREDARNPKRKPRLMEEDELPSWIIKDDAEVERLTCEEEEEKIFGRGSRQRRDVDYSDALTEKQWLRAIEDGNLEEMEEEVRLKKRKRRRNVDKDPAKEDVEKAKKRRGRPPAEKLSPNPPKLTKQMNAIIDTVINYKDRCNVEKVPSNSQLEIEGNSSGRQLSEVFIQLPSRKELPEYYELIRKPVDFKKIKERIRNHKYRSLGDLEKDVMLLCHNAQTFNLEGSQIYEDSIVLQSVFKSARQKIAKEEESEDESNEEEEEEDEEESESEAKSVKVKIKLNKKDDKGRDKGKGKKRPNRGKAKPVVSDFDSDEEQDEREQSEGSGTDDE
assay_readout: pIC50
Value format note: pIC50 is -log10 of concentration (mol/L); just state the number.

compound	pIC50
CC1(C)c2cc(C3CCNCC3)ccc2-n2c1nc(=O)c1c(Br)cccc12	8.55
Cc1ncsc1-c1ccc([C@H](C)NC(=O)[C@@H]2C[C@@H](O)CN2C(=O)[C@@H](c2cc(OCC3(CN4CCC(c5ccc6c(c5)C(C)(C)c5nc(=O)c7c(Cl)cccc7n5-6)CC4)CC3)no2)C(C)C)cc1	7.14
Cc1ncsc1-c1ccc([C@H](C)NC(=O)[C@@H]2C[C@@H](O)CN2C(=O)[C@@H](c2cc(N3CCC(CN4CCC(c5ccc6c(c5)-n5c(nc(=O)c7c(Cl)cccc75)C6(C)C)CC4)CC3)no2)C(C)C)cc1	7.52
Cc1ncsc1-c1ccc([C@H](C)NC(=O)[C@@H]2C[C@@H](O)CN2C(=O)[C@@H](c2cc(CN3CCC(c4ccc5c(c4)C(C)(C)c4nc(=O)c6c(Cl)cccc6n4-5)CC3)no2)C(C)C)cc1	6.46
O=c1nc2n(c3cccc(Cl)c13)-c1ccc(C3CCNCC3)cc1C21CCCCCC1	7.28

Let us move to another entry and its pIC50.
Ask: Returns the measured pIC50 for the input compound. Input: Cc1ncsc1-c1ccc([C@H](C)NC(=O)[C@@H]2C[C@@H](O)CN2C(=O)[C@@H](c2cc(OCC(C)CN3CCC(c4ccc5c(c4)-n4c(nc(=O)c6c(Cl)cccc64)C5(C)C)CC3)no2)C(C)C)cc1 (stereo partly specified)
Reply: 7.47

---

We begin with a simple list: items and their reported pIC50.
tested_on: SWI/SNF-related matrix-associated actin-dependent regulator of chromatin subfamily A member 4 (Homo sapiens, UniProt P51532)
Sequence (P51532 whole entry): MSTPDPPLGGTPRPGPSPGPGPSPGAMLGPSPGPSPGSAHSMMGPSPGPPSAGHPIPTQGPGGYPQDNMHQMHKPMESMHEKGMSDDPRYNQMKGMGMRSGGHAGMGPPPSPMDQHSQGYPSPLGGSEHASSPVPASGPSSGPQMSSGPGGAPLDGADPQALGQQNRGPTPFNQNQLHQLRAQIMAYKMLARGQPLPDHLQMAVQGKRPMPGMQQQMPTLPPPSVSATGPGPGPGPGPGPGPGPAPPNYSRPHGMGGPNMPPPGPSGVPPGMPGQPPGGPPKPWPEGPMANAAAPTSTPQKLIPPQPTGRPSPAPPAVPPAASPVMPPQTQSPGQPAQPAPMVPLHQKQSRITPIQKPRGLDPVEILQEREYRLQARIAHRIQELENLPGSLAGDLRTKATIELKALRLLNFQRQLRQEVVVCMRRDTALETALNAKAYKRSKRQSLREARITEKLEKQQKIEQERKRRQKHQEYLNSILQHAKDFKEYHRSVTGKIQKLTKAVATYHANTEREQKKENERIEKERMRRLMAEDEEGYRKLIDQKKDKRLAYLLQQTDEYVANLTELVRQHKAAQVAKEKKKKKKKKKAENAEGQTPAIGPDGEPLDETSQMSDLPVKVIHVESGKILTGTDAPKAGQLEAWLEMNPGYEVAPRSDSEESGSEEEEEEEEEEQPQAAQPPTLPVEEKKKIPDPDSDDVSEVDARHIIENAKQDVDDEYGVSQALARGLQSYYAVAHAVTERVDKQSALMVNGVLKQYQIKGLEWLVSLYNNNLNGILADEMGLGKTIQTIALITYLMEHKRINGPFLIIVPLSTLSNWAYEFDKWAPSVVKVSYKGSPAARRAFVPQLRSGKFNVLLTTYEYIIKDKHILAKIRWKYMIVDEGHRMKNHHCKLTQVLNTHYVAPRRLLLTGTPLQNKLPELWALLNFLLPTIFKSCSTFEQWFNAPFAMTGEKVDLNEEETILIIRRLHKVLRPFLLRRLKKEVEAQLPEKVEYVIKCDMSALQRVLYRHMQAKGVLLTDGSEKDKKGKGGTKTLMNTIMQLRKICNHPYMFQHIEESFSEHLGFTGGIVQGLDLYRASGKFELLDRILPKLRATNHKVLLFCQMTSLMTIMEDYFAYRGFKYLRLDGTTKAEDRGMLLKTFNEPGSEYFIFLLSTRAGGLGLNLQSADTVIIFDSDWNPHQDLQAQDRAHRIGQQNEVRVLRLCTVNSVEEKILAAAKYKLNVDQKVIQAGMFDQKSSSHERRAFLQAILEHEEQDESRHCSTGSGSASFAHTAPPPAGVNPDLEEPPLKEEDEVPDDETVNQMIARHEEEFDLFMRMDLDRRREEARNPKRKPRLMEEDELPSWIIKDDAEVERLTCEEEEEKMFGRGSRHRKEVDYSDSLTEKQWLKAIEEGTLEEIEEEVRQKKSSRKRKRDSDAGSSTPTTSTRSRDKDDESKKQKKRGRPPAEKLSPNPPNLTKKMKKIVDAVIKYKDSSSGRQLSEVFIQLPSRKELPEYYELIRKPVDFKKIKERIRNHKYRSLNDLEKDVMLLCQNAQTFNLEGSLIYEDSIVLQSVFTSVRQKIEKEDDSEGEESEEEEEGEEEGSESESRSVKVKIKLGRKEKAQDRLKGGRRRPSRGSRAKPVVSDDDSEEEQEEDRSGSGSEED
The meaning of pIC50 here: minus log10 of the concentration in molar units.

molecule	numeric_value
Cc1ncsc1-c1ccc([C@H](C)NC(=O)[C@@H]2C[C@@H](O)CN2C(=O)[C@@H](c2cc(N3CCC(CN4CCC(c5cccc6c5C(C)(C)c5nc(=O)c7c(Cl)cccc7n5-6)CC4)CC3)no2)C(C)C)cc1	7.08
Cc1ncsc1-c1ccc([C@H](C)NC(=O)[C@@H]2C[C@@H](O)CN2C(=O)[C@@H](c2cc(CN3CCC(c4ccc5c(c4)C(C)(C)c4nc(=O)c6c(Cl)cccc6n4-5)CC3)no2)C(C)C)cc1	6.30
CC1(C)c2ccc(C3CCNCC3)cc2-n2c1nc(=O)c1c(Cl)cccc12	7.42
O=c1nc2n(c3cccc(Br)c13)-c1ccc(C3CCNCC3)cc1C21CCCCC1	8.00
O=c1nc2n(c3cccc(Cl)c13)-c1ccc(C3CCNCC3)cc1C21CCCCCC1	6.82
Cc1ncsc1-c1ccc([C@H](C)NC(=O)[C@@H]2C[C@@H](O)CN2C(=O)[C@@H](c2cc(N3CCC(CN4CCC(c5ccc6c(c5)-n5c(nc(=O)c7c(Cl)cccc75)C6(C)C)CC4)CC3)no2)C(C)C)cc1	7.20

Now consider the entry below.
Ask: Reported pIC50 for CC1(C)c2cc(C3CCNCC3)ccc2-n2c1nc(=O)c1c(Cl)cccc12 : what is it?
Reply: 7.44

---

Tested on: NCI-H838
assay_protocol: Antiproliferative activity against human NCI-H838 cells assessed as cell growth inhibition incubated for 6 days by Cell Titer Glo assay
Type: functional
run_parameters: NCI-H838, 144 h, time 6 day
This section presents molecules with their documented GI50 values.
Answer in nM, number only, no unit symbol.

Worked set:
Cc1ncsc1-c1ccc([C@H](C)NC(=O)[C@@H]2C[C@@H](O)CN2C(=O)[C@@H](NC(=O)[C@H]2CC[C@H](CN3CCC(c4ccc5c(c4)-n4c(nc(=O)c6c(Br)cccc64)C5(C)C)CC3)CC2)C(C)(C)C)cc1 40
Cc1ncsc1-c1ccc([C@H](C)NC(=O)[C@@H]2C[C@@H](O)CN2C(=O)[C@@H](n2cc([C@H]3CC[C@H](CN4CCC(c5ccc6c(c5)-n5c(nc(=O)c7c(Cl)cccc75)C6(C)C)CC4)CC3)nn2)C(C)(C)C)cc1 34

Ask: Item under review: Cc1ncsc1-c1ccc([C@H](C)NC(=O)[C@@H]2C[C@@H](O)CN2C(=O)[C@@H](c2cc(N3CCC(CN4CCC(c5ccc6c(c5)-n5c(nc(=O)c7c(Cl)cccc75)C6(C)C)CC4)CC3)no2)C(C)C)cc1 . Reported GI50?
Reply: 27

---

System: Calu-6
assay_protocol: Antiproliferative activity against human Calu-6 cells assessed as cell growth inhibition incubated for 6 days by Cell Titer Glo assay
Type: functional
run_parameters: Calu-6, 144 h, time 6 day
molecules and their reported GI50

// worked examples, GI50 included
Cc1ncsc1-c1ccc([C@H](C)NC(=O)[C@@H]2C[C@@H](O)CN2C(=O)[C@@H](n2cc([C@H]3CC[C@H](CN4CCC(c5ccc6c(c5)-n5c(nc(=O)c7c(Cl)cccc75)C6(C)C)CC4)CC3)nn2)C(C)(C)C)cc1 > 1000 nM
Cc1ncsc1-c1ccc([C@H](C)NC(=O)[C@@H]2C[C@@H](O)CN2C(=O)[C@@H](n2cc([C@H]3CC[C@H](CN4CCC(c5ccc6c(c5)C(C)(C)c5nc(=O)c7c(Cl)cccc7n5-6)CC4)CC3)nn2)C(C)(C)C)cc1 > 1000 nM
Cc1ncsc1-c1ccc([C@H](C)NC(=O)[C@@H]2C[C@@H](O)CN2C(=O)[C@@H](NC(=O)[C@H]2CC[C@H](CN3CCC(c4ccc5c(c4)-n4c(nc(=O)c6c(Br)cccc64)C5(C)C)CC3)CC2)C(C)(C)C)cc1 > 1000 nM
Cc1ncsc1-c1ccc([C@H](C)NC(=O)[C@@H]2C[C@@H](O)CN2C(=O)[C@H](C(C)C)n2cc([C@H]3CC[C@H](CN4CCC(c5ccc6c(c5)C(C)(C)c5nc(=O)c7c(Cl)cccc7n5-6)CC4)CC3)nn2)cc1 280 nM

Ask: Returns the measured GI50 for the input molecule. Input: Cc1ncsc1-c1ccc([C@H](C)NC(=O)[C@@H]2C[C@@H](O)CN2C(=O)[C@@H](c2cc(N3CCC(CN4CCC(c5ccc6c(c5)-n5c(nc(=O)c7c(Cl)cccc75)C6(C)C)CC4)CC3)no2)C(C)C)cc1
Reply: > 1000 nM

---

assay_protocol: Metabolic stability in female BALB/c mouse microsomes assessed as hepatic extraction ratio administered intravenously
Assay type: ADME
run_parameters: route iv, read-out: ERH
assay_readout: hepatic extraction ratio
When you answer, write just the number.

Ask: Would you mind telling me what hepatic extraction ratio value was observed for Cc1ncsc1-c1ccc([C@H](C)NC(=O)[C@@H]2C[C@@H](O)CN2C(=O)[C@@H](n2cc([C@H]3CC[C@H](CN4CCC(c5ccc6c(c5)C(C)(C)c5nc(=O)c7c(Cl)cccc7n5-6)CC4)CC3)nn2)C(C)(C)C)cc1 ?
Reply: 0.44

---

tested_on: von Hippel-Lindau disease tumor suppressor/SWI/SNF-related matrix-associated actin-dependent regulator of chromatin subfamily A member 4 (Homo sapiens, UniProt P51532+P40337)
Sequence (P40337 whole entry, looked up): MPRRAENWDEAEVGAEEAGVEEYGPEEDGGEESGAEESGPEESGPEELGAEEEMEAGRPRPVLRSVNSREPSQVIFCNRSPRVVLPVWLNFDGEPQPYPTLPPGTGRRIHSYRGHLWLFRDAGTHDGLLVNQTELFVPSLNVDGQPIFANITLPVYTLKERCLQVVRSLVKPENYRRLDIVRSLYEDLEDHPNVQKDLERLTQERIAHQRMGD
Sequence (P51532 whole entry, looked up): as the sequence (P51532 whole entry) above
assay_protocol: PROTAC activity at VHL/SMARCA4 in human HT-1080 cells assessed as induction of SMARCA4 degradation by measuring maximum efficacy incubated for 6 hrs by Nano-Glo HiBiT Lytic Detection Assay relative to control
Assay type: cell-based
Outcome: 1 for Emax of at least 90%; 0 for anything lower.

compound_structure_string	cat
Cc1ncsc1-c1ccc([C@H](C)NC(=O)[C@@H]2C[C@@H](O)CN2C(=O)[C@@H](n2cc([C@H]3CC[C@H](CN4CCC(c5ccc6c(c5)C(C)(C)c5nc(=O)c7c(Cl)cccc7n5-6)CC4)CC3)nn2)C(C)(C)C)cc1	0

Ask: Given the entry Cc1ncsc1-c1ccc([C@H](C)NC(=O)[C@@H]2C[C@@H](O)CN2C(=O)[C@@H](c2cc(OCCCCN3CCC(c4ccc5c(c4)C(C)(C)c4nc(=O)c6c(Cl)cccc6n4-5)CC3)no2)C(C)C)cc1 , answer whether its Emax meets or surpasses 90%.
Reply: 1

Ask: Exam item: decide whether the reported Emax for Cc1ncsc1-c1ccc([C@H](C)NC(=O)[C@@H]2C[C@@H](O)CN2C(=O)[C@@H](c2cc(N3CCC(CN4CCC(c5cccc6c5C(C)(C)c5nc(=O)c7c(Cl)cccc7n5-6)CC4)CC3)no2)C(C)C)cc1 is at least 90%.
Reply: 0

Ask: Please tell me: is the molecule Cc1ncsc1-c1ccc([C@H](C)NC(=O)[C@@H]2C[C@@H](O)CN2C(=O)[C@@H](n2cc([C@H]3CC[C@H](CN4CCC(c5ccc6c(c5)-n5c(nc(=O)c7c(Cl)cccc75)C6(C)C)CC4)CC3)nn2)C(C)(C)C)cc1 at or over 90% in terms of Emax?
Reply: 0
